Taken from patent US8685916B2.

Test: Oral administration of hydrocodone prodrugs KC-40 or KC-50 co-dosed with Compound 109 to rats
Settings: Sprague Dawley, rat, plasma, po, […]
Metric: Tmax (h)
Respond numerically; units are h and should not be typed.

Input line: Please report the measured Tmax for COc1ccc2c3c1O[C@H]1C(=O)CC[C@H]4[C@@H](C2)N(C)CC[C@]314 [Hydrocodone, hydrocodone]
Output line: 1.06

* * *

Biological target: trypsin (Bos taurus, UniProt P00760)
Construct: purchased Sigma-Aldrich T8003; host or cells: bovine pancreas (tissue-derived preparation)
Sequence (P00760 24-246): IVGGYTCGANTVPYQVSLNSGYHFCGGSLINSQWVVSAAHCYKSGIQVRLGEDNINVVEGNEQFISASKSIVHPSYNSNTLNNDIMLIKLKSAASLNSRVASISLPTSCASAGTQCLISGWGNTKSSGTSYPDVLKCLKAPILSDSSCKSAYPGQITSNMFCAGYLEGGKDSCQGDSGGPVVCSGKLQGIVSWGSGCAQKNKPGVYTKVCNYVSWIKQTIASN
Test: In vitro trypsin conversion of Compound TP-5 to tapentadol and inhibition by Compound 109
Format: biochemical, bovine
Settings: bovine, trypsin from bovine pancreas; read-out: Pro-drug trypsin half-life, Average ± sd (converted)
Metric: half-life (min)
Kindly provide the numeric value in min only, without the unit symbol.

Input line: Input CC[C@@H](c1cccc(OC(=O)N2CCCCC2CNC(=O)[C@@H](CCCNC(=N)N)NC(=O)CC(=O)O)c1)[C@@H](C)CN(C)C (stereo partly shown) , output reported half-life.
Output line: 3.99
